# Lookup of reported remaining at 3 h keyed by entry
test: Chemical stability in aqueous buffer at pH 1 after 3 hrs; format: physicochemical; details: read-out: Stability
quantity: remaining at 3 h

• O=C(CCC(CO[N+](=O)[O-])O[N+](=O)[O-])Oc1ccccc1C(=O)O (stereo unspecified) = > 85%
• O=C(CCCCCO[N+](=O)[O-])Oc1ccccc1C(=O)O = > 97%
• O=C(O)c1ccccc1O = 85%
• O=C(CCCCCCO[N+](=O)[O-])Oc1ccccc1C(=O)O = > 97%
• O=C(CC(CO[N+](=O)[O-])O[N+](=O)[O-])Oc1ccccc1C(=O)O (stereo unspecified) = > 85%
• O=C(CCCC(CO[N+](=O)[O-])O[N+](=O)[O-])Oc1ccccc1C(=O)O (stereo unspecified) = > 85%

These measurements were taken from ChEMBL document CHEMBL1142275.
